Attribution: patent US20260227408A1

Test system: CD3/CD28 (TransAct) activated PBMCs
Assay: PBMC cytokine release by CBA, Inhibition format (peptide with CD3/CD28 TransAct activator)
Assay type: cell-based, human
Design: key: X = a hit with significant activation or inhibition of relevant cytokine release
Conditions: peptide applied with anti-CD3/CD28 T-cell activator; supernatant CBA after 24 hours

# substance, Inhibition by Analyte IL-1b
measured = [
    ("SEQ ID NO: 37394: target protein of the Sequence Listing, applied as peptide to PBMCs (MESRTLLLLFSGAVALIQTWADYNYNQGRNDLIFTLQLWKRQ; listed as Homo sapiens)", "X"),
    ("SEQ ID NO: 34837: target protein of the Sequence Listing, applied as peptide to PBMCs (MRSPLSASALLLWSSSVARAFSSPSLLMAVPSPTCSRY; listed as Homo sapiens)", "X"),
    ("SEQ ID NO: 37363: target protein of the Sequence Listing, applied as peptide to PBMCs (MGGKSWLFFYSLVFCALLPLPRREDPFKLF; listed as Homo sapiens)", "X"),
    ("SEQ ID NO: 35373: target protein of the Sequence Listing, applied as peptide to PBMCs (LDFIRAFLLLLVASVPGKIGSQNLTAQRPPVATSFLQMESSEPTVRK; listed as Homo sapiens)", "X"),
    ("SEQ ID NO: 35558: target protein of the Sequence Listing, applied as peptide to PBMCs (MTAFGLGIPTFLVMQPSGSQPRFPALTQNGVALVRTPLTSVYLRVRICRVLGPRSQPS; listed as Homo sapiens)", "X"),
    ("SEQ ID NO: 33885: Target Protein validated as an anti-inflammatory immune modulator (VAEPRRGHLKAALASLGGAAPAAATNGSPPLFK; listed as Homo sapiens)", "X"),
]
